- Tested on: PANC-1 tumor model
- PROTOCOL TEXT: Tissue distribution in nude mice (PANC-1 tumor model)
- Format: in vivo, BALB/c nu/nu mice
- CONDITION DETAILS: nude mice (PANC-1 tumor model), 1 h after injection
PROPERTY LABEL: Tissue distribution, Thyroid (%ID/g)
Respond with the bare value in %ID/g.

[
  {
    "COMPOUND": "COc1ccc(C[C@](C)(N)C(=O)O)cc1[211At] [^211At-AAMT-O-Me-L]",
    "DISPLAY UNIT": "%ID/g",
    "ENDPOINT RESULT": 0.20
  },
  {
    "COMPOUND": "CCOc1ccc(C[C@](C)(N)C(=O)O)cc1[211At] [^211At-AAMT-O-Et-L]",
    "DISPLAY UNIT": "%ID/g",
    "ENDPOINT RESULT": 24.50
  },
  {
    "COMPOUND": "CCCOc1ccc(C[C@](C)(N)C(=O)O)cc1[211At] [^211At-AAMT-O-Pr-L]",
    "DISPLAY UNIT": "%ID/g",
    "ENDPOINT RESULT": 16.44
  }
]

Could you now consider this next compound?
Request: Recorded Tissue distribution, Thyroid for COc1ccc(C[C@@](C)(N)C(=O)O)cc1[211At] [^211At-AAMT-O-Me-D] , please?
Response: 0.14
